Origin of measurements: ChEMBL document CHEMBL3045142

test system: Reticulitermes speratus; test: Antifeedant activity against Reticulitermes speratus assessed per disk after 30 days by no-choice bioassay; assay type: functional
metric: PC50 (µg)
A number alone suffices; assume µg.

COC(=O)C[C@H]1[C@]2(C)C3=C(C)[C@H](c4ccoc4)C[C@@H]3O[C@@H]2[C@H](O)[C@@H]2[C@@]1(C)C(=O)C=C[C@@]2(C)O | 96
COC(=O)C[C@H]1[C@]2(C)C3=C(C)[C@H](c4ccoc4)C[C@H]3O[C@@H]2[C@H](O)[C@@H]2[C@]1(C)C(=O)C=C[C@@]2(C)C(=O)OC | 280.6

The molecule CC(=O)O[C@@H]1C[C@H]2C(C)(C)C(=O)C=C[C@]2(C)[C@H]2CC[C@@]3(C)[C@H](c4ccoc4)OC(=O)[C@H]4O[C@]43[C@@]21C , tested on Reticulitermes speratus, showed PC50 of 49
